target-or-system: Receptor tyrosine-protein kinase erbB-2 (Homo sapiens, UniProt P04626)
Sequence (P04626 whole entry, the tested form may be a part): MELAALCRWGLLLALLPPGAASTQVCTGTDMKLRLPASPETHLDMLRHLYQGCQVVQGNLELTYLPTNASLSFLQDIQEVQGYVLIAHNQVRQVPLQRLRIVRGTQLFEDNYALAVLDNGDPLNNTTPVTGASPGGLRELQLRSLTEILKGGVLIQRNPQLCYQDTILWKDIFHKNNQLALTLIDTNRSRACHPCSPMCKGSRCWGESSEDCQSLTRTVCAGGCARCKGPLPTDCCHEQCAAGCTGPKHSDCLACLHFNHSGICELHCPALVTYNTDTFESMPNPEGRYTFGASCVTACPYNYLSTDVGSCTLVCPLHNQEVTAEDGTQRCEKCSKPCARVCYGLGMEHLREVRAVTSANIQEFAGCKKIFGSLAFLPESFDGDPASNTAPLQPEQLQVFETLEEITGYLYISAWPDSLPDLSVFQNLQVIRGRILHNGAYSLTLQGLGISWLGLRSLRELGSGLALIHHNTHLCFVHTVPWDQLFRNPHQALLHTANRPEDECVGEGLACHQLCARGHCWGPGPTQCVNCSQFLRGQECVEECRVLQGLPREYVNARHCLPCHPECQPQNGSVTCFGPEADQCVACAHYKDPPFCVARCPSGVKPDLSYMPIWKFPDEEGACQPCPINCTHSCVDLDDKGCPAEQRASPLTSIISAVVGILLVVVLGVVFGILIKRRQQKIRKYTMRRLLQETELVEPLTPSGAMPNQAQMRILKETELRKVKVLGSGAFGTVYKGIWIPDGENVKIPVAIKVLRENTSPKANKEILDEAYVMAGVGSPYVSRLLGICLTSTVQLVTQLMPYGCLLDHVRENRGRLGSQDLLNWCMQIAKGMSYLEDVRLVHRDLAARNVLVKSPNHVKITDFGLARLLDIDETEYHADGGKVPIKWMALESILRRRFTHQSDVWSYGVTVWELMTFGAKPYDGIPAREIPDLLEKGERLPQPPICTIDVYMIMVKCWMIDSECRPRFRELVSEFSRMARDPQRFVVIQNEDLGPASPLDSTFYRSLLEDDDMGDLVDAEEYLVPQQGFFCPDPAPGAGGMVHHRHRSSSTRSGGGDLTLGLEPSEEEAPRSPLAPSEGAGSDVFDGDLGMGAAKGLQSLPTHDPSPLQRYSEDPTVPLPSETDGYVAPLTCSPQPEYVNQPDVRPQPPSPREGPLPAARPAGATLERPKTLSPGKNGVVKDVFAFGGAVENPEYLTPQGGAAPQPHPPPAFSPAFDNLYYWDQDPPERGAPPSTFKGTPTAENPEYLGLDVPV
test: Inhibition of C-terminal His6-tagged HER2 (703 to 1029 residues) (unknown origin) expressed in Sf9 insect cells using TK as substrate preincubated for 30 mins followed by substrate addition and measured after 60 mins in presence of XL665-labeled streptavidin by HTRF assay
// reported IC50 per item
recorded-metric: IC50 (nM)

- smiles-representation: "C=CC(=O)Nc1cccc(-c2c(-c3ccc(N4CCN(C)CC4)cc3)[nH]c3ncnc(OC(C)C)c23)c1"
  recorded-metric: "IC50"
  result-units: "nM"
  reported-result: 21
- smiles-representation: "C=CC(=O)Nc1cc(-c2c[nH]c3ncnc(Nc4ccc(OCc5ccccn5)c(Cl)c4)c23)ccc1OCCN(C)C"
  recorded-metric: "IC50"
  result-units: "nM"
  reported-result: 15
- smiles-representation: "C=CC(=O)Nc1cccc(-c2c(-c3ccc(N4CCN(C)CC4)cc3)[nH]c3ncn(C)c(=O)c23)c1"
  recorded-metric: "IC50"
  result-units: "nM"
  reported-result: 146
